System: SK-OV-3
method_summary: Cytotoxicity against human SK-OV-3 cells
Assay type: functional
test_conditions: read-out: ED50 (the source's name)
measured_quantity: EC50

INSERT INTO measurements (compound, result) VALUES
  ('CCCCCC/C=C\CCCCCCCCCCCCCCCCCC[C@@H](O)C(=O)N[C@@H](CO[C@@H]1O[C@H](CO)[C@@H](O)[C@H](O)[C@H]1O)[C@H](O)/C=C/CC/C=C(C)/C=C/CCCCCCC [RENIEROSIDE B1]', '> 10 µg/mL'),
  ('CCCCCCC/C=C/C=C/CC/C=C/[C@@H](O)[C@H](CO[C@@H]1O[C@H](CO)[C@@H](O)[C@H](O)[C@H]1O)NC(=O)[C@H](O)CCCCCCCCCCCCC/C=C\CCCCCCCC [RENIEROSIDE A3]', '> 10 µg/mL'),
  ('CCCCCC/C=C\CCCCCCCCCCCCCCCCCC[C@@H](O)C(=O)N[C@@H](CO[C@@H]1O[C@H](CO)[C@@H](O)[C@H](O)[C@H]1O)[C@H](O)/C=C/CC/C=C/C=C/CCCCCCC [RENIEROSIDE A1]', '> 10 µg/mL');
